The reported numbers originate from paper PMC6515286.

Target System: 5-HT2A receptor (Homo sapiens)
Sequence (P28223 whole entry): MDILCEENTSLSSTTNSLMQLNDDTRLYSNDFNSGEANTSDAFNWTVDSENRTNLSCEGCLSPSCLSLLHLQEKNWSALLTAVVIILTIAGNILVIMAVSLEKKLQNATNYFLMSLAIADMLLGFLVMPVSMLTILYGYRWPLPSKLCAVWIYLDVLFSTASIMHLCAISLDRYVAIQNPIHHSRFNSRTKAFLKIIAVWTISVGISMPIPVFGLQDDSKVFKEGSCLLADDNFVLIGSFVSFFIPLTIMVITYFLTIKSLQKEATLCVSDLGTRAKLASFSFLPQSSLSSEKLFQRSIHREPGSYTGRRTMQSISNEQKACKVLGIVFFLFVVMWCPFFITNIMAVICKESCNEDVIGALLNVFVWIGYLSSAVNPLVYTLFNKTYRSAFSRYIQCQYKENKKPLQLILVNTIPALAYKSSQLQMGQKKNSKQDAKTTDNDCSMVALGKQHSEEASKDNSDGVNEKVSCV
pKi: −log10 of the molar value.
Property Measured: pKi

Below are worked cases with known answers.
O=c1n(CCCCCCN2CCN(c3ccccc3Cl)CC2)nc2ccccn12 [10f] ... 5.59
O=c1n(CCCCCCN2CCN(c3ccccc3F)CC2)nc2ccccn12 [10i] ... 6.38
O=c1n(CCCN2CCN(c3cccc(Cl)c3Cl)CC2)nc2ccccn12 [10a] ... 6.74

[P] O=c1n(CCCCCCN2CCN(c3ccccc3)CC2)nc2ccccn12 [10p]
[Q] O=c1n(CCCCCCN2CCN(c3ccc(Cl)c(Cl)c3)CC2)nc2ccccn12 [10h]
[R] COc1ccc(N2CCN(CCCCCCn3nc4ccccn4c3=O)CC2)cc1 [10l]
[S] O=c1n(CCCCCCN2CCN(c3ccccn3)CC2)nc2ccccn12 [10n]
Q: Let's sort these by pKi, smallest first. Go ahead? Put the labels in the order asked and list them.
Ans: R, S, P, Q
(R: 5.41, S: 5.76, P: 6.41, Q: 7.11)

* * *

Target System: D2 receptor (Homo sapiens)
Sequence (P14416 whole entry): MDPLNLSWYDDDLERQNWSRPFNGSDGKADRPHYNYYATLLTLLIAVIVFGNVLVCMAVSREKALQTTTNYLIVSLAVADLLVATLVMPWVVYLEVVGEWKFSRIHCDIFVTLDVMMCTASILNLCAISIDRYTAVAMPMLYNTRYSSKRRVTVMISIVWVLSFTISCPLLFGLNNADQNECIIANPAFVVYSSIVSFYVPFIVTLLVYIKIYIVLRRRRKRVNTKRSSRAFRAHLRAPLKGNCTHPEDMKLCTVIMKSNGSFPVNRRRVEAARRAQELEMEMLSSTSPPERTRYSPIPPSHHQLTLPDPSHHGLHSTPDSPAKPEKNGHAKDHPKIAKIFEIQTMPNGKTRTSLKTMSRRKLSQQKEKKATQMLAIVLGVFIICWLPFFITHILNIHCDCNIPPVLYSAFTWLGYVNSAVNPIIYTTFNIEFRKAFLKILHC
Method Description: in vitro binding to D2 receptor (screening protocol)
Settings: read-out: Ki ± SD D2
Property Measured: Ki (nM)

Observe how each entry below is paired with its result.
O=c1n(CCCCCCN2CCN(c3ccccc3Cl)CC2)nc2ccccn12 [10f] ... 522
O=c1n(CCCCCCN2CCN(c3ccccn3)CC2)nc2ccccn12 [10n] ... 10

[a] O=c1n(CCCCCCN2CCN(c3ccc(Cl)cc3)CC2)nc2ccccn12 [10g]
[b] O=c1n(CCCCCCN2CCN(c3ccccc3)CC2)nc2ccccn12 [10p]
[c] O=c1n(CCCN2CCN(c3cccc(Cl)c3Cl)CC2)nc2ccccn12 [10a]
Q: Order each entry by recorded Ki, climbing from the minimum. To answer, write out the labels according to the requested order.
Ans: c, a, b

* * *

Target System: 5-HT7 receptor (Homo sapiens, UniProt P34969)
Sequence (P34969 whole entry): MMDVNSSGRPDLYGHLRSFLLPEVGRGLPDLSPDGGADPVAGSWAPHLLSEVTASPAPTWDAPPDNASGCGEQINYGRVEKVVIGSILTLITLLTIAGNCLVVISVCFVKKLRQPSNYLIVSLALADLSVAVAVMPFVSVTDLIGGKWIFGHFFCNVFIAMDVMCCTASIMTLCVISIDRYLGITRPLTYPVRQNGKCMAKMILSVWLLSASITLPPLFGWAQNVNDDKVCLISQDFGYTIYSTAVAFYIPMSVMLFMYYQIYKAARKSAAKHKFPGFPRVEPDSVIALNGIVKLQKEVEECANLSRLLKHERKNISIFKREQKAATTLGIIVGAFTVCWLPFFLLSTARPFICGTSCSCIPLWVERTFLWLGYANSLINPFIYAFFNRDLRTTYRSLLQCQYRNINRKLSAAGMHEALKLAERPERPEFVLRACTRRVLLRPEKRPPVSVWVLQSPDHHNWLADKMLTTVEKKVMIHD
pKi: −log10 of the molar value.
Property Measured: pKi

Consider the worked cases shown below.
O=c1n(CCCCCCN2CCN(c3ccccc3F)CC2)nc2ccccn12 [10i] ... 6.00
COc1ccc(N2CCN(CCCCCCn3nc4ccccn4c3=O)CC2)cc1 [10l] ... 5.08
O=c1n(CCCCCCN2CCN(c3ccccc3)CC2)nc2ccccn12 [10p] ... 6.39
O=c1n(CCCCCCN2CCN(c3ccccc3Cl)CC2)nc2ccccn12 [10f] ... 5.59
O=c1n(CCCN2CCN(c3ccccc3F)CC2)nc2ccccn12 [10b] ... 5.13

[A] CCOc1ccccc1N1CCN(CCCCCCn2nc3ccccn3c2=O)CC1 [10m]
[B] O=c1n(CCCN2CCN(c3cccc(Cl)c3Cl)CC2)nc2ccccn12 [10a]
[C] CCOc1ccccc1N1CCN(CCCn2nc3ccccn3c2=O)CC1 [10d]
Q: Output the entries ranked by pKi from maximum down to minimum. Give me the labels in the order the question wants.
Ans: B, A, C

* * *

Target System: 5-HT6 receptor (Homo sapiens)
Sequence (P50406 whole entry): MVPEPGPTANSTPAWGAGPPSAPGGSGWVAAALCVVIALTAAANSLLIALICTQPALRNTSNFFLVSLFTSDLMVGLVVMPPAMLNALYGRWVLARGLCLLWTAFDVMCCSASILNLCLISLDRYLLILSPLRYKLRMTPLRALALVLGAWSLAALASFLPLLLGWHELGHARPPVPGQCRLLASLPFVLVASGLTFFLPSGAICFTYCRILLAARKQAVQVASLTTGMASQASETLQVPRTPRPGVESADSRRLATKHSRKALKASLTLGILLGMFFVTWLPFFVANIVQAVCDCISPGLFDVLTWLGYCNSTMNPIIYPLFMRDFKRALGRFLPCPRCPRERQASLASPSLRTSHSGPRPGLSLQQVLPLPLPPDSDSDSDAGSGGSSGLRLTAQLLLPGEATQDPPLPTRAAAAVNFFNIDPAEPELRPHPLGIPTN
pKi: −log10 of the molar value.
Property Measured: pKi

Below, each entry is followed by its recorded pKi result.
COc1cccc(N2CCN(CCCCCCn3nc4ccccn4c3=O)CC2)c1 [10k] ... 5.46
O=c1n(CCCCCCN2CCN(c3ncccn3)CC2)nc2ccccn12 [10o] ... 5.14
O=c1n(CCCCCCN2CCN(c3ccccn3)CC2)nc2ccccn12 [10n] ... 5.33
O=c1n(CCCCCCN2CCN(c3ccc(Cl)cc3)CC2)nc2ccccn12 [10g] ... 5.69
CCOc1ccccc1N1CCN(CCCCCCn2nc3ccccn3c2=O)CC1 [10m] ... 5.32

[1] O=c1n(CCCCCCN2CCN(c3ccccc3)CC2)nc2ccccn12 [10p]
[2] O=c1n(CCCN2CCN(c3cccc(Cl)c3Cl)CC2)nc2ccccn12 [10a]
[3] COc1ccc(N2CCN(CCCCCCn3nc4ccccn4c3=O)CC2)cc1 [10l]
[4] O=c1n(CCCCCCN2CCN(c3ccc(Cl)c(Cl)c3)CC2)nc2ccccn12 [10h]
[5] COc1ccccc1N1CCN(CCCCCCn2nc3ccccn3c2=O)CC1 [10j]
Q: Hello, I need these entries ordered by pKi, highest reading first. Thanks! Answer format: the labels, ordered as requested.
Ans: 4, 2, 1, 3, 5

* * *

The reader will find pKi measurements below, all made with UniProt:P50406.
pKi: −log10 of the molar value.
Property Measured: pKi

These solved cases illustrate the format of a correct answer.
O=c1n(CCCCCCN2CCN(c3ccccc3Cl)CC2)nc2ccccn12 [10f] ... 5.45
O=c1n(CCCN2CCN(c3ncccn3)CC2)nc2ccccn12 [10c] ... 5.49
O=c1n(CCCCCCN2CCN(c3ccccc3F)CC2)nc2ccccn12 [10i] ... 5.32
CCOc1ccccc1N1CCN(CCCn2nc3ccccn3c2=O)CC1 [10d] ... 5.02
O=c1n(CCCCCCN2CCN(c3cccc(Cl)c3)CC2)nc2ccccn12 [10e] ... 5.71

[I] O=c1n(CCCN2CCN(c3ccccc3F)CC2)nc2ccccn12 [10b]
[II] O=c1n(CCCCCCN2CCN(c3ccccc3-c3ccccc3)CC2)nc2ccccn12 [10r]
Q: # query: argmin of pKi over I and II # respond with the chosen item's label
Ans: I

* * *

Assay system 5-HT1A receptor (Homo sapiens, UniProt P08908); read-out recorded as Ki.
Property Measured: Ki (nM)

Study these solved cases before continuing.
COc1ccc(N2CCN(CCCCCCn3nc4ccccn4c3=O)CC2)cc1 [10l] ... 826
COc1ccccc1N1CCN(CCCCCCn2nc3ccccn3c2=O)CC1 [10j] ... 4
O=c1n(CCCCCCN2CCN(c3ccccc3)CC2)nc2ccccn12 [10p] ... 28
O=c1n(CCCCCCN2CCN(c3ncccn3)CC2)nc2ccccn12 [10o] ... 104
O=c1n(CCCCCCN2CCN(c3cccc(Cl)c3)CC2)nc2ccccn12 [10e] ... 16
CCOc1ccccc1N1CCN(CCCCCCn2nc3ccccn3c2=O)CC1 [10m] ... 9

[A] O=c1n(CCCCCCN2CCN(c3ccc(Cl)c(Cl)c3)CC2)nc2ccccn12 [10h]
[B] O=c1n(CCCN2CCN(c3ncccn3)CC2)nc2ccccn12 [10c]
[C] O=c1n(CCCCCCN2CCN(c3ccccc3F)CC2)nc2ccccn12 [10i]
[D] O=c1n(CCCN2CCN(c3ccccc3F)CC2)nc2ccccn12 [10b]
[E] O=c1n(CCCCCCN2CCN(c3ccccc3Cl)CC2)nc2ccccn12 [10f]
Q: // sort entries: Ki, high to low Note for the reader: the ranking is given by listing the labels in the order requested.
Ans: D, B, E, A, C
(D: 1550 nM, B: 459 nM, E: 49 nM, A: 19 nM, C: 7 nM)

[1] O=c1n(CCCCCCN2CCN(c3ccccn3)CC2)nc2ccccn12 [10n]
[2] O=c1n(CCCCCCN2CCN(c3ccc(Cl)cc3)CC2)nc2ccccn12 [10g]
Q: Identify the entry with the larger Ki. Options: 1 and 2 Please respond with the label that marks your chosen entry.
Ans: 2
(2: 27 nM, 1: 18 nM)

[A] COc1cccc(N2CCN(CCCCCCn3nc4ccccn4c3=O)CC2)c1 [10k]
[B] O=c1n(CCCCCCN2CCN(c3ccccc3-c3ccccc3)CC2)nc2ccccn12 [10r]
[C] CCOc1ccccc1N1CCN(CCCn2nc3ccccn3c2=O)CC1 [10d]
Q: Ascending sort, Ki. As an answer, provide the labels arranged in the order called for.
Ans: A, B, C

* * *

Target System: D2 receptor (Homo sapiens)
Method Description: in vitro binding to D2 receptor (screening protocol)
Settings: read-out: Ki ± SD D2
Property Measured: Ki (nM)

Examples with answers:
COc1ccccc1N1CCN(CCCCCCn2nc3ccccn3c2=O)CC1 [10j] ... 57
O=c1n(CCCCCCN2CCN(c3ncccn3)CC2)nc2ccccn12 [10o] ... 202
CCOc1ccccc1N1CCN(CCCn2nc3ccccn3c2=O)CC1 [10d] ... 152
O=c1n(CCCN2CCN(c3ccccc3F)CC2)nc2ccccn12 [10b] ... 1650

[1] CCOc1ccccc1N1CCN(CCCCCCn2nc3ccccn3c2=O)CC1 [10m]
[2] COc1cccc(N2CCN(CCCCCCn3nc4ccccn4c3=O)CC2)c1 [10k]
Q: For 1 and 2 , which recorded Ki is lower? # reply format: chosen label
Ans: 2

* * *

Target System: UniProt P28223
Property Measured: Ki (nM)

[A] O=c1n(CCCCCCN2CCN(c3ncccn3)CC2)nc2ccccn12 [10o]
[B] CCOc1ccccc1N1CCN(CCCn2nc3ccccn3c2=O)CC1 [10d]
Q: Between A and B , whose measured Ki reads higher? Answer with the label corresponding to your selection.
Ans: A

* * *

Target System: 5-HT7 receptor (Homo sapiens, UniProt P34969)
Property Measured: Ki (nM)

O=c1n(CCCCCCN2CCN(c3ncccn3)CC2)nc2ccccn12 [10o] ... 5570

[1] O=c1n(CCCCCCN2CCN(c3ccc(Cl)c(Cl)c3)CC2)nc2ccccn12 [10h]
[2] O=c1n(CCCCCCN2CCN(c3ccccc3-c3ccccc3)CC2)nc2ccccn12 [10r]
Q: Hi, I'm comparing 1 with 2 and wondering which one has the bigger number for Ki. Any idea? Returns: label corresponding to the selected item.
Ans: 1
